# System: human beta-coronavirus OC43
# procedure_summary: microbe, parasite or virus in culture
# Assay type: cell-based
# condition_description: Betacoronavirus 1, OC43, HeLa, 144 h, OC43 in HeLa cells, 6 days at 33° C., class symbols; read-out: EC50
EC50 values by entry
measured_quantity: EC50

{"compound": "C=CC[C@@H]1C[C@@H](C(=O)N[C@@H](C[C@@H]2CCNC2=O)C(=O)C(=O)NCc2ccccc2)N(C(=O)c2cc3ccccc3[nH]2)C1 [Compound 21]", "measured_quantity": "EC50", "recorded_result": "100 to 1000 nM"}
{"compound": "O=C(NCc1ccccc1)C(=O)C(C[C@@H]1CCNC1=O)NC(=O)[C@@H]1[C@H]2CCC[C@H]2CN1C(=O)c1cc2ccccc2[nH]1 (some centres unmarked) [Compound 2]", "measured_quantity": "EC50", "recorded_result": "100 to 1000 nM"}
{"compound": "COc1cccc2[nH]c(C(=O)N3C[C@]4(C[C@H]3C(=O)N[C@@H](C[C@@H]3CCCNC3=O)C(=O)CO)CC4(F)F)cc12 [Compound 47]", "measured_quantity": "EC50", "recorded_result": "100 to 1000 nM"}
{"compound": "CC1(C)CCN(C(=O)c2cc3ccccc3[nH]2)[C@H](C(=O)NC(C[C@@H]2CCNC2=O)C(=O)C(=O)NCc2ccccc2)C1 (some centres unmarked) [Compound 26]", "measured_quantity": "EC50", "recorded_result": "100 to 1000 nM"}
{"compound": "COc1cccc2[nH]c(C(=O)N3C[C@H](C(F)(F)F)C[C@H]3C(=O)N[C@@H](C[C@@H]3CCCNC3=O)C(=O)COCc3ccccc3)cc12 [Compound 45A]", "measured_quantity": "EC50", "recorded_result": "100 to 1000 nM"}
{"compound": "O=C1NCC[C@H]1C[C@H](NC(=O)[C@@H]1[C@H]2CCC[C@H]2CN1C(=O)c1cc2c(Cl)cc(F)c(Cl)c2[nH]1)C(=O)CO [Compound 162]", "measured_quantity": "EC50", "recorded_result": "< 100 nM"}
{"compound": "CC(F)(F)c1cccc2[nH]c(C(=O)N3C[C@@H]4CCC[C@@H]4[C@H]3C(=O)N[C@@H](C[C@@H]3CCNC3=O)C(=O)CO)cc12 [Compound 152]", "measured_quantity": "EC50", "recorded_result": "1000 to 10000 nM"}
{"compound": "COc1cccc2[nH]c(C(=O)N3C[C@]4(C[C@H]3C(=O)N[C@@H](C[C@@H]3CCCNC3=O)C(=O)COCc3ccccc3)CC4(F)F)cc12 [Compound 47A]", "measured_quantity": "EC50", "recorded_result": "< 100 nM"}
{"compound": "O=C(NCc1ccccc1)C(=O)C(C[C@@H]1CCNC1=O)NC(=O)[C@@H]1C[C@@H](C2CC2)CN1C(=O)c1cc2ccccc2[nH]1 (some centres unmarked) [Compound 40]", "measured_quantity": "EC50", "recorded_result": "100 to 1000 nM"}
{"compound": "O=C(NCc1ccccc1)C(=O)C(C[C@@H]1CCNC1=O)NC(=O)[C@@H]1CCCCN1C(=O)c1cc2ccccc2[nH]1 (some centres unmarked) [Compound 1]", "measured_quantity": "EC50", "recorded_result": "1000 to 10000 nM"}
{"compound": "CC(C)(C)C(=O)OCC(=O)[C@H](C[C@@H]1CCNC1=O)NC(=O)[C@@H]1[C@H]2CCC[C@H]2CN1C(=O)c1cc2c(Cl)cc(Cl)cc2[nH]1 [Compound 132]", "measured_quantity": "EC50", "recorded_result": "< 100 nM"}
{"compound": "O=C1NCC[C@H]1C[C@H](NC(=O)[C@@H]1[C@H]2CCC[C@H]2CN1C(=O)c1cc2c(OC(F)F)cc(Cl)cc2[nH]1)C(=O)CO [Compound 126]", "measured_quantity": "EC50", "recorded_result": "< 100 nM"}
{"compound": "O=C1NCC[C@H]1C[C@H](NC(=O)[C@@H]1[C@H]2CCC[C@H]2CN1C(=O)c1cc2c(Cl)cc(F)cc2[nH]1)C(=O)CO [Compound 90]", "measured_quantity": "EC50", "recorded_result": "< 100 nM"}
{"compound": "CCOC(=O)c1cc(C(=O)N2C[C@@H]3CCC[C@@H]3[C@H]2C(=O)N[C@@H](C[C@@H]2CCNC2=O)C(=O)CO)[nH]c1C [Compound 85]", "measured_quantity": "EC50", "recorded_result": "1000 to 10000 nM"}
{"compound": "O=C(NC1CC1)C(=O)[C@H](C[C@@H]1CCNC1=O)NC(=O)[C@@H]1CC2(CCN1C(=O)c1cc3c(Cl)cccc3[nH]1)CC2 [Compound 145]", "measured_quantity": "EC50", "recorded_result": "1000 to 10000 nM"}
{"compound": "O=C(NC1CC1)C(=O)[C@H](C[C@@H]1CCNC1=O)NC(=O)[C@@H]1CC2(CCN1C(=O)c1cc3c(F)cccc3[nH]1)CC2 [Compound 164]", "measured_quantity": "EC50", "recorded_result": "1000 to 10000 nM"}
{"compound": "COc1cccc2[nH]c(C(=O)N3C[C@H]4CCCC[C@H]4[C@@H]3C(=O)N[C@@H](C[C@@H]3CCCNC3=O)C(=O)CO)cc12 [Compound 59_2]", "measured_quantity": "EC50", "recorded_result": "1000 to 10000 nM"}
{"compound": "O=C1NCC[C@H]1C[C@H](NC(=O)[C@@H]1[C@H]2CCC[C@H]2CN1C(=O)c1cc2c(Cl)ccc(-c3ccccc3)c2[nH]1)C(=O)CO [Compound 168]", "measured_quantity": "EC50", "recorded_result": "1000 to 10000 nM"}
{"compound": "O=C1NCC[C@H]1C[C@H](NC(=O)[C@@H]1[C@H]2CCC[C@H]2CN1C(=O)c1cc2c(Cl)cc(Cl)c(F)c2[nH]1)C(=O)CO [Compound 160]", "measured_quantity": "EC50", "recorded_result": "100 to 1000 nM"}
{"compound": "COc1ccc(Cl)c2[nH]c(C(=O)N3C[C@@H]4CCC[C@@H]4[C@H]3C(=O)N[C@@H](C[C@@H]3CCNC3=O)C(=O)CO)cc12 [Compound 89]", "measured_quantity": "EC50", "recorded_result": "100 to 1000 nM"}

* * *

# assayed_target: human cathepsin L (Homo sapiens, UniProt P07711)
# Construct: purchased R&D Systems
# procedure_summary: cathepsin L assay
# Type: biochemical
# condition_description: 10 pM human cathepsin L, Z-FR-AMC 2 μM, class symbols
IC50 values by entry

{"compound": "COc1cccc2[nH]c(C(=O)N3C[C@]4(C[C@H]3C(=O)NC(C[C@@H]3CCCNC3=O)C(=O)C(N)=O)CC4(F)F)cc12 (stereo partly drawn)", "IC50": "1 to 10 µM"}
{"compound": "COc1cccc2[nH]c(C(=O)N3C[C@]4(C[C@H]3C(=O)N[C@@H](C[C@@H]3CCNC3=O)C(=O)CO)CC4(F)F)cc12", "IC50": "≥ 10 µM"}
{"compound": "O=C1NCCC[C@H]1C[C@H](NC(=O)[C@@H]1[C@H]2CCC[C@H]2CN1C(=O)c1cc2ccccc2[nH]1)C(O)S(=O)(=O)O (stereo partly drawn)", "IC50": "1 to 10 µM"}
{"compound": "O=C1NCC[C@H]1C[C@H](NC(=O)[C@@H]1[C@H]2CCC[C@H]2CN1C(=O)c1cc2c(C(F)(F)F)cccc2[nH]1)C(=O)CO", "IC50": "≥ 10 µM"}
{"compound": "CCOC(=O)c1cc(C(=O)N2C[C@@H]3CCC[C@@H]3[C@H]2C(=O)N[C@H](C#N)C[C@@H]2CCNC2=O)[nH]c1C", "IC50": "≥ 10 µM"}
{"compound": "O=C1NCC[C@H]1C[C@H](NC(=O)[C@@H]1[C@H]2CCC[C@H]2CN1C(=O)c1cc2ccsc2[nH]1)C(=O)CO", "IC50": "≥ 10 µM"}

* * *

# assayed_target: human cathepsin L (Homo sapiens)
# Construct: purchased R&D Systems
# procedure_summary: cathepsin L assay
# Format: biochemical
# condition_description: 10 pM human cathepsin L, Z-FR-AMC 2 μM, class symbols
# Description: For the cathepsin L assay, 10 pM of human cathepsin L (R&D Systems; Minneapolis, MN) was preincubated for 30 mins with test compounds. […] Fluorescence was measured at 2-minute intervals for 30 mins using a 355/460 excitation/emission filter module on an Envision plate reader (Perkin Elmer; Waltham, MA). The IC50 values were calculated for each assay by fitting the curves using a four-parameter equation in GraphPad Prism.

{"molecule": "COc1cccc2[nH]c(C(=O)N3C[C@@H]4CCC[C@@H]4[C@H]3C(=O)N[C@@H](CN3CC[C@H](O)C3=O)C(=O)C(=O)NC3CC3)cc12", "IC50": "≥ 10 µM"}
{"molecule": "COc1cccc2[nH]c(C(=O)N3C[C@]4(C[C@H]3C(=O)NC(C[C@@H]3CCCNC3=O)C(=O)C(=O)NC3CC3)CC4(F)F)cc12 (some centres unmarked)", "IC50": "< 0.1 µM"}
{"molecule": "COc1cccc2[nH]c(C(=O)N3C[C@@H]4CCC[C@@H]4[C@H]3C(=O)N[C@@H](C[C@@H]3CCNC3=O)C(=O)C(=O)NCCOCc3ccccc3)cc12", "IC50": "≥ 10 µM"}
{"molecule": "COc1nccc2[nH]c(C(=O)N3C[C@@H]4CCC[C@@H]4[C@H]3C(=O)N[C@H](C#N)C[C@@H]3CCNC3=O)cc12", "IC50": "≥ 10 µM"}
{"molecule": "CC(C)NC(=O)C(=O)C(C[C@@H]1CCCNC1=O)NC(=O)[C@@H]1[C@H]2CCC[C@H]2CN1C(=O)c1cc2ccccc2[nH]1 (some centres unmarked)", "IC50": "≥ 10 µM"}
{"molecule": "O=C1NCC[C@H]1C[C@H](NC(=O)[C@@H]1[C@H]2CCC[C@H]2CN1C(=O)c1cc2c(Cl)c(F)cc(F)c2[nH]1)C(=O)CO", "IC50": "≥ 10 µM"}
{"molecule": "COc1cccc2[nH]c(C(=O)N3C[C@@H]4CCCC[C@@H]4[C@H]3C(=O)N[C@@H](C[C@@H]3CCCNC3=O)C(=O)COCc3ccccc3)cc12 (single isomer, unassigned)", "IC50": "≥ 10 µM"}
{"molecule": "COc1cccc2[nH]c(C(=O)N3C[C@@H]4CCC[C@@H]4[C@H]3C(=O)N[C@@H](Cn3cc[nH]c3=O)C(=O)C(=O)NC3CC3)cc12", "IC50": "≥ 10 µM"}
{"molecule": "O=C(NCc1ccccc1)C(=O)C(C[C@@H]1CCNC1=O)NC(=O)[C@@H]1CC2(CC2)CN1C(=O)c1cc2ccccc2[nH]1 (some centres unmarked)", "IC50": "0.1 to 1 µM"}
{"molecule": "COc1cccc2[nH]c(C(=O)N3C[C@@H]4CCC[C@@H]4[C@H]3C(=O)N[C@@H](C[C@@H]3CCNC3=O)C(=O)c3nc4ccccc4s3)cc12", "IC50": "≥ 10 µM"}
{"molecule": "O=C1NCC[C@H]1C[C@H](NC(=O)[C@@H]1[C@H]2CCC[C@H]2CN1C(=O)c1cc2c(Cl)cc(Cl)cc2[nH]1)C(=O)CO", "IC50": "≥ 10 µM"}
{"molecule": "O=C1NCC[C@H]1C[C@H](NC(=O)[C@@H]1[C@H]2CCC[C@H]2CN1C(=O)c1cc(-c2ccccc2)c[nH]1)C(=O)CO", "IC50": "≥ 10 µM"}
{"molecule": "COc1cc(Cl)cc2[nH]c(C(=O)N3C[C@@H]4CCC[C@@H]4[C@H]3C(=O)N[C@H](C#N)C[C@@H]3CCNC3=O)cc12", "IC50": "≥ 10 µM"}
{"molecule": "COc1cccc2[nH]c(C(=O)N3Cc4ccccc4C[C@H]3C(=O)N[C@@H](C[C@@H]3CCNC3=O)C(=O)COCc3ccccc3)cc12", "IC50": "≥ 10 µM"}
{"molecule": "O=C(NC1CC1)C(=O)[C@H](C[C@@H]1CCNC1=O)NC(=O)[C@@H]1[C@H]2CCC[C@H]2CN1C(=O)c1cc2c(Cl)cc(Cl)cc2[nH]1", "IC50": "≥ 10 µM"}
{"molecule": "COc1cccc2oc(C(=O)N3C[C@@H]4CCC[C@@H]4[C@H]3C(=O)N[C@@H](C[C@@H]3CCNC3=O)C(=O)CO)cc12", "IC50": "≥ 10 µM"}
{"molecule": "COc1cccc2[nH]c(C(=O)N3C[C@@H]4CCC[C@@H]4[C@H]3C(=O)N[C@H](C=O)CC3CCNS3(=O)=O)cc12 (some centres unmarked)", "IC50": "≥ 10 µM"}
{"molecule": "O=C(NC1CC1)C(=O)[C@H](C[C@@H]1CCNC1=O)NC(=O)[C@@H]1CC2(CCN1C(=O)c1cc3ccccc3s1)CC2", "IC50": "1 to 10 µM"}
{"molecule": "O=C1NCC[C@H]1C[C@H](NC(=O)[C@@H]1[C@H]2CCC[C@H]2CN1C(=O)c1ccc(-c2ccccc2)[nH]1)C(=O)CO", "IC50": "≥ 10 µM"}
{"molecule": "O=C1NCC[C@H]1C[C@H](NC(=O)[C@@H]1[C@H]2CCC[C@H]2CN1C(=O)c1cc2c(Cl)cc(OCc3ccccc3)cc2[nH]1)C(=O)CO", "IC50": "≥ 10 µM"}
{"molecule": "O=C(NC1CC1)C(=O)[C@H](C[C@@H]1CCNC1=O)NC(=O)[C@@H]1CC2(CCN1C(=O)c1cc3c(C(F)(F)F)cccc3[nH]1)CC2", "IC50": "0.1 to 1 µM"}
{"molecule": "COc1ccc(Cl)c2cc(C(=O)N3C[C@@H]4CCC[C@@H]4[C@H]3C(=O)N[C@@H](C[C@@H]3CCNC3=O)C(=O)CO)[nH]c12", "IC50": "≥ 10 µM"}
{"molecule": "N#C[C@H](C[C@@H]1CCNC1=O)NC(=O)[C@@H]1[C@H]2CCC[C@H]2CN1C(=O)c1cc2c(OC3CC3)cc(Cl)cc2[nH]1", "IC50": "≥ 10 µM"}
